Data origin: patent US20250346574A1

Kindly state DC50 for each of the entries shown.
Biological target: Helios (Homo sapiens, UniProt Q96SW2+Q9UKS7)
Sequence (Q9UKS7 whole entry): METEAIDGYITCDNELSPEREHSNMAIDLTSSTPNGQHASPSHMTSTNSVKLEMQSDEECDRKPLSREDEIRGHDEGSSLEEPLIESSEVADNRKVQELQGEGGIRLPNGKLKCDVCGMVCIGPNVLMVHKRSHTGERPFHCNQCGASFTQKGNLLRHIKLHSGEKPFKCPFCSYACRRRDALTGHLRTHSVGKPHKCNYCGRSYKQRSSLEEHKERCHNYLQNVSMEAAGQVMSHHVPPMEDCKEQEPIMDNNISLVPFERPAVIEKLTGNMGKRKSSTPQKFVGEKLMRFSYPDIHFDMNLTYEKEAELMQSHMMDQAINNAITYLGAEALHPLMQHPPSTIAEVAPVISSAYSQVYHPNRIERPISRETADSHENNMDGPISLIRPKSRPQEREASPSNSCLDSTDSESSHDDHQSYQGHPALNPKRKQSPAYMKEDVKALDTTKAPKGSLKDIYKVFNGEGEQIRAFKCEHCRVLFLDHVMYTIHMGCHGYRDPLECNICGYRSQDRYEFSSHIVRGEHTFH
Sequence (Q96SW2 whole entry): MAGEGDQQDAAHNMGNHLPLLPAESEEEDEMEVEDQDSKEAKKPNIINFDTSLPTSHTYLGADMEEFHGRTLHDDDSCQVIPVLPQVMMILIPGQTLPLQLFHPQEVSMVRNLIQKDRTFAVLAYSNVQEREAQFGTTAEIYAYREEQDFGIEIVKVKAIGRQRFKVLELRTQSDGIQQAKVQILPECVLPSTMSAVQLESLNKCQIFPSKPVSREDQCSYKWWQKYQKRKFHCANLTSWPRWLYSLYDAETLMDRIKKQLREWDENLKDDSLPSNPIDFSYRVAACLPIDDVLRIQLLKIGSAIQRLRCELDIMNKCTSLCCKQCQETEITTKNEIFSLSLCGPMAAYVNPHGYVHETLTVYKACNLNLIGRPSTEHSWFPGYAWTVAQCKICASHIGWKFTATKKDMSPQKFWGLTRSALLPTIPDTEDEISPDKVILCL
Sequence (Q16531 whole entry partner): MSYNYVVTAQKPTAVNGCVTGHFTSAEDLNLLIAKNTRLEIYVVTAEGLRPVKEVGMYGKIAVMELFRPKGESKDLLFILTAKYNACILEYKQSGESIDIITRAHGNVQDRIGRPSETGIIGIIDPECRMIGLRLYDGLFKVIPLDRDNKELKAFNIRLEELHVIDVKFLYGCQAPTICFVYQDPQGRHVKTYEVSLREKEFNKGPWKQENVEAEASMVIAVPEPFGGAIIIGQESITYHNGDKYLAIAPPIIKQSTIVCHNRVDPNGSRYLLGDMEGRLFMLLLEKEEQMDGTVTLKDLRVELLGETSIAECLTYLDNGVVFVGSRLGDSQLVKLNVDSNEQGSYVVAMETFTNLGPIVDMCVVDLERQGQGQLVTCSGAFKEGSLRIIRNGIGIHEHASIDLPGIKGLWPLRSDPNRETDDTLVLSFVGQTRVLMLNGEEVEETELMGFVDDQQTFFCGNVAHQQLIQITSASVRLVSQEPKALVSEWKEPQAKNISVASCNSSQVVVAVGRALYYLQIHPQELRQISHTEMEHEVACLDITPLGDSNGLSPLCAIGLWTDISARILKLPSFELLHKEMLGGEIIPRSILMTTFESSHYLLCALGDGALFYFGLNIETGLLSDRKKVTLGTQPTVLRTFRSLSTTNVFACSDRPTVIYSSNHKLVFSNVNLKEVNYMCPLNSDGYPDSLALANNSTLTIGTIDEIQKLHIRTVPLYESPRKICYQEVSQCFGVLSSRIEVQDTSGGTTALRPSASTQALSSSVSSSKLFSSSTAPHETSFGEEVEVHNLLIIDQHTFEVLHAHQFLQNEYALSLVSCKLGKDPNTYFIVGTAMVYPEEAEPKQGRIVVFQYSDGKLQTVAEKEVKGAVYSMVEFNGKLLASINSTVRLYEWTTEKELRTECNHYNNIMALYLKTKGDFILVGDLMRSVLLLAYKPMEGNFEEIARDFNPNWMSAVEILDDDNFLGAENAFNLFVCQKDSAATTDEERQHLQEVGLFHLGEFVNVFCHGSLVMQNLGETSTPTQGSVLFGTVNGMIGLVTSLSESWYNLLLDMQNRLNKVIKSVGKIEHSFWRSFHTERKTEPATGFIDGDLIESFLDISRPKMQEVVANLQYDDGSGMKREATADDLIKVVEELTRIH
Assay: Helios Human T Regulatory Cells Degradation Assay
Type: cell-based
Design: fluorescently labelled antibodies against Helios in 1× Permeabilization buffer; endogenous in cells; host or cells: cryopreserved human T regulatory cells
Conditions: cryopreserved human T regulatory cells, incubated 20 hours, Helios-APC antibody staining, flow cytometry; read-out: hTreg Helios DC50
Record the value in nM, omitting the unit from your answer.

# lookup: DC50 of CC(O)C1CCN(Cc2ccnc(-c3ccc4c(c3)CN(C3CCC(=O)NC3=O)C4=O)c2F)CC1 (stereo not shown) [Example 113]
13.9

Which value of DC50 has been reported for CC1(O)CC2CN(Cc3ccnc(-c4ccc5c(c4)CN(C4CCC(=O)NC4=O)C5=O)c3F)CC2C1 (stereo not shown) [Example 255] in the records?
492

Need DC50, item CC1(O)CCCN(Cc2ccnc(-c3ccc4c(c3)CN(C3CCC(=O)NC3=O)C4=O)c2F)CC1 (stereo not shown) [Example 220]
34.2

---

Biological target: Helios (Homo sapiens, UniProt Q96SW2+Q9UKS7)
Assay: Helios Human T Regulatory Cells Degradation Assay
Type: cell-based
Parameters: fluorescently labelled antibodies against Helios in 1× Permeabilization buffer; endogenous in cells; host or cells: cryopreserved human T regulatory cells
Settings: cryopreserved human T regulatory cells, incubated 20 hours, Helios-APC antibody staining, flow cytometry; read-out: hTreg Helios DC50
Please provide measured DC50 for the entries that follow.
Entry rule: numbers only, all in nM.

Looking for the measured DC50 of C[C@@H]1CN(Cc2ccnc(-c3ccc4c(c3)CN(C3CCC(=O)NC3=O)C4=O)c2F)C[C@H]1O (stereo partly shown) , can you help?
38.6

Any idea what DC50 was measured for O=C1CCC(N2Cc3cc(-c4cc(CN5CC6(CCCCC6)C5)ccn4)ccc3C2=O)C(=O)N1 (stereo not shown) ?
2.5

---

Provide the recorded DC50 for the entries that follow.
Molecular target: Helios (Homo sapiens, UniProt Q96SW2+Q9UKS7)
Experiment: Helios Human T Regulatory Cells Degradation Assay
Type: cell-based
Set-up: fluorescently labelled antibodies against Helios in 1× Permeabilization buffer; endogenous in cells; host or cells: cryopreserved human T regulatory cells
Details: cryopreserved human T regulatory cells, incubated 20 hours, Helios-APC antibody staining, flow cytometry; read-out: hTreg Helios DC50
Your answer should be a plain number; it is taken to be in µM.

# input molecule: CC(C)(O)C1CCN(Cc2cc(-c3ccc4c(c3)CN(C3CCC(=O)NC3=O)C4=O)ncc2F)CC1 (centres unmarked) ; wanted: its DC50
0.0012

// query DC50 value for entry CN(C1CN(Cc2ccnc(-c3ccc4c(c3)CN([C@H]3CCC(=O)NC3=O)C4=O)c2)C1)S(C)(=O)=O
0.223

Bench note: what DC50 did CC(C)(O)[C@@H]1CCN(Cc2ccnc(-c3ccc4c(c3)CN(C3CCC(=O)NC3=O)C4=O)c2)C1 (some centres unmarked) show?
0.006

Which DC50 is listed for CC1(O)CN(Cc2ccnc(-c3ccc4c(c3)CN(C3CCC(=O)NC3=O)C4=O)c2F)C1 (centres unmarked) ?
0.0729

Please report the recorded DC50 for O=C1CCC(N2Cc3cc(-c4cc(CN5CC(CNC(=O)c6ccccc6)C5)ccn4)ccc3C2=O)C(=O)N1 (centres unmarked) .
0.0146

Form field: reported DC50 of C[C@](O)(c1ccccc1)[C@H]1CCCN1Cc1ccnc(-c2ccc3c(c2)CN(C2CCC(=O)NC2=O)C3=O)c1F (some centres unmarked)
4.13

For the molecule shown here, CN(C1CN(Cc2ccnc(-c3ccc4c(c3)CN([C@H]3CCC(=O)NC3=O)C4=O)c2)C1)S(=O)(=O)c1ccccc1 , give the reported DC50.
0.0287
